Assay: Permeability of the compound assessed as membrane retention at pH 5 to 7.4 after 16 hrs by PAMPA assay
Assay type: ADME
Details: pH 5, 16 h
testReadout: R% (%)

{"structureNotation": "COc1cccc(Cn2cc(CCO[C@H]3O[C@H](CO)[C@@H](O)[C@H](O)[C@@H]3O)nn2)c1", "numericValue": 11.8}

I. COc1cccc(Cn2cc(CO[C@H]3O[C@H](CO)[C@@H](O)[C@H](O)[C@@H]3O)nn2)c1
II. COc1ccc(-n2cc(CO[C@H]3O[C@H](CO)[C@@H](O)[C@H](O)[C@@H]3O)nn2)cc1
Please indicate which item has the smaller measured R%: I versus II Choose, then provide that item's label.
I
(I: 4%, II: 7.9%)

1. O=[N+]([O-])c1ccc(-n2cc(CCO[C@H]3O[C@H](CO)[C@@H](O)[C@H](O)[C@@H]3O)nn2)cc1
2. OC[C@H]1O[C@H](n2cc(-c3cccc(Cl)c3)nn2)[C@@H](O)[C@@H](O)[C@@H]1O
3. OC[C@H]1O[C@H](n2cc(-c3ccccc3)nn2)[C@@H](O)[C@@H](O)[C@@H]1O
// ranking: key=R%, reverse=True Put the labels in the requested order and list them out.
2, 3, 1
(2: 13.2%, 3: 6.4%, 1: 2.9%)

---

Molecular target: Type 1 fimbrin D-mannose specific adhesin (Escherichia coli K-12)
Sequence (P08191 whole entry): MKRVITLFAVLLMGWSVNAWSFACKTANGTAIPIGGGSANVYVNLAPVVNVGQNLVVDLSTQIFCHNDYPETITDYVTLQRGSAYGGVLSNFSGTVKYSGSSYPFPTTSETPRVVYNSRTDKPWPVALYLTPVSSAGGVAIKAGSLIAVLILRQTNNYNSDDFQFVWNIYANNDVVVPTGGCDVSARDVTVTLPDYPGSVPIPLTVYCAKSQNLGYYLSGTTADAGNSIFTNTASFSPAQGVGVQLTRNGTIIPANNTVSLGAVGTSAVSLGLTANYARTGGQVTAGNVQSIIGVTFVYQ
Assay: Ratio of compound IC50 to n-heptyl alpha-D-mannopyranoside IC50 for Escherichia coli recombinant C-terminal 6His-tagged FimH-CRD with a C-terminal thrombin cleavage site expressed in Escherichia coli HM125 assessed as inhibition of streptavidin-horseradish peroxidase conjugated TM-PAA polymer binding after 3 hrs by spectrophotometry
testReadout: Ratio IC50

// worked examples, Ratio IC50 included
{"structureNotation": "OC[C@H]1O[C@H](n2cc(-c3cccc(Cl)c3)nn2)[C@@H](O)[C@@H](O)[C@@H]1O", "Ratio IC50": 5.1}
{"structureNotation": "OC[C@H]1O[C@H](OCc2cn(-c3ccc(F)cc3)nn2)[C@@H](O)[C@@H](O)[C@@H]1O", "Ratio IC50": 11.9}
{"structureNotation": "OC[C@H]1O[C@H](Cn2cc(-c3cccc(Cl)c3)nn2)[C@@H](O)[C@@H](O)[C@@H]1O", "Ratio IC50": 9.7}
{"structureNotation": "OC[C@H]1O[C@H](Cn2cc(COc3ccccc3)nn2)[C@@H](O)[C@@H](O)[C@@H]1O", "Ratio IC50": 5}

A. Cc1ccc(-c2cn(C[C@H]3O[C@H](CO)[C@@H](O)[C@H](O)[C@@H]3O)nn2)cc1
B. OC[C@H]1O[C@H](OCc2cn(C34CC5CC(CC(C5)C3)C4)nn2)[C@@H](O)[C@@H](O)[C@@H]1O
C. OC[C@H]1O[C@H](OCc2cn(-c3ccncc3)nn2)[C@@H](O)[C@@H](O)[C@@H]1O
// ranking: key=Ratio IC50, reverse=True Put the labels in the requested order and list them out.
A, B, C

---

Assay: Permeability of the compound assessed as membrane retention at pH 5 to 7.4 after 16 hrs by PAMPA assay
Assay type: ADME
Conditions: pH 5, 16 h
testReadout: R% (%)

{"structureNotation": "OC[C@H]1O[C@H](n2cc(-c3ccc(C(F)(F)F)cc3)nn2)[C@@H](O)[C@@H](O)[C@@H]1O", "numericValue": 17.2}

a. CCCCCCCO[C@H]1O[C@H](CO)[C@@H](O)[C@H](O)[C@@H]1O
b. OC[C@H]1O[C@H](Cn2cc(-c3ccccc3)nn2)[C@@H](O)[C@@H](O)[C@@H]1O
c. O=[N+]([O-])c1ccc(-n2cc(CO[C@H]3O[C@H](CO)[C@@H](O)[C@H](O)[C@@H]3O)nn2)cc1
// ranking: key=R%, reverse=True Put the labels in the requested order and list them out.
a, b, c

---

Biological target: Type 1 fimbrin D-mannose specific adhesin (Escherichia coli K-12)
Experiment: Antagonist activity at Escherichia coli recombinant C-terminal 6His-tagged FimH-CRD with a C-terminal thrombin cleavage site expressed in Escherichia coli HM125 assessed as inhibition of streptavidin-horseradish peroxidase conjugated TM-PAA polymer binding after 3 hrs by spectrophotometry
pIC50: −log10 of the molar value.
testReadout: pIC50

{"structureNotation": "COc1ccc(Cn2cc(CO[C@H]3O[C@H](CO)[C@@H](O)[C@H](O)[C@@H]3O)nn2)cc1", "testReadout": "pIC50", "numericValue": 6.29}
{"structureNotation": "OC[C@H]1O[C@H](Cn2cc(-c3ccc(C(F)(F)F)cc3)nn2)[C@@H](O)[C@@H](O)[C@@H]1O", "testReadout": "pIC50", "numericValue": 6.71}
{"structureNotation": "OC[C@H]1O[C@H](Cn2cc(-c3cccnc3)nn2)[C@@H](O)[C@@H](O)[C@@H]1O", "testReadout": "pIC50", "numericValue": 6.48}

I. OC[C@H]1O[C@H](n2cc(-c3cccnc3)nn2)[C@@H](O)[C@@H](O)[C@@H]1O
II. OC[C@H]1O[C@H](OCc2cn(-c3ccc(F)cc3)nn2)[C@@H](O)[C@@H](O)[C@@H]1O
III. OC[C@H]1O[C@H](OCc2cn(C34CC5CC(CC(C5)C3)C4)nn2)[C@@H](O)[C@@H](O)[C@@H]1O
IV. CO[C@H]1O[C@H](CO)[C@@H](O)[C@H](O)[C@@H]1O
V. COc1cccc(Cn2cc(CO[C@H]3O[C@H](CO)[C@@H](O)[C@H](O)[C@@H]3O)nn2)c1
Arrange these 5 compounds in increasing order of pIC50. Put the labels in the requested order and list them out.
IV, II, V, I, III
(IV: 5.72, II: 6.11, V: 6.34, I: 6.67, III: 6.87)

---

Assay: Permeability of the compound assessed as membrane retention at pH 5 to 7.4 after 16 hrs by PAMPA assay
Assay type: ADME
Conditions: pH 5, 16 h
testReadout: R% (%)

// worked examples, R% included
{"structureNotation": "OC[C@H]1O[C@H](OCc2cn(-c3ccc(F)cc3)nn2)[C@@H](O)[C@@H](O)[C@@H]1O", "R%, %": 4.6}
{"structureNotation": "Cc1ccc(-c2cn(C[C@H]3O[C@H](CO)[C@@H](O)[C@H](O)[C@@H]3O)nn2)cc1", "R%, %": 6.3}
{"structureNotation": "OC[C@H]1O[C@H](OCCc2cn(-c3ccc(F)cc3)nn2)[C@@H](O)[C@@H](O)[C@@H]1O", "R%, %": 4}

a. OC[C@H]1O[C@H](OCc2cn(-c3ccncc3)nn2)[C@@H](O)[C@@H](O)[C@@H]1O
b. OC[C@H]1O[C@H](OCc2cn(-c3cccc(F)c3)nn2)[C@@H](O)[C@@H](O)[C@@H]1O
Would you let me know which has the greater R% value, a or b ? Choose, then provide that item's label.
a

---

Test: Octanol-phosphate buffer distribution coefficient, log D of the compound at pH 7.4 after 2 hrs by shake flask method using LC-MS analysis
Format: physicochemical
testReadout: logD at 2 h

{"structureNotation": "OC[C@H]1O[C@H](n2cc(-c3cccc(Cl)c3)nn2)[C@@H](O)[C@@H](O)[C@@H]1O", "logD at 2 h": 1.22}
{"structureNotation": "Nc1ccc(-n2cc(CO[C@H]3O[C@H](CO)[C@@H](O)[C@H](O)[C@@H]3O)nn2)cc1", "logD at 2 h": 0.2}
{"structureNotation": "OC[C@H]1O[C@H](OCc2cn(-c3ccc(F)cc3)nn2)[C@@H](O)[C@@H](O)[C@@H]1O", "logD at 2 h": -0.15}
{"structureNotation": "OC[C@H]1O[C@H](Cn2cc(COc3ccccc3)nn2)[C@@H](O)[C@@H](O)[C@@H]1O", "logD at 2 h": -0.83}
{"structureNotation": "OC[C@H]1O[C@H](OCc2cn(Cc3ccccc3)nn2)[C@@H](O)[C@@H](O)[C@@H]1O", "logD at 2 h": -0.33}
{"structureNotation": "OC[C@H]1O[C@H](OCCc2cn(-c3ccc(F)cc3)nn2)[C@@H](O)[C@@H](O)[C@@H]1O", "logD at 2 h": -0.21}

P. OC[C@H]1O[C@H](Cn2cc(-c3ccccc3)nn2)[C@@H](O)[C@@H](O)[C@@H]1O
Q. COc1ccc(-n2cc(CO[C@H]3O[C@H](CO)[C@@H](O)[C@H](O)[C@@H]3O)nn2)cc1
Would you let me know which has the greater logD at 2 h value, P or Q ? Choose, then provide that item's label.
Q
(Q: -0.05, P: -0.36)

---

Assay: Permeability of the compound assessed as membrane retention at pH 5 to 7.4 after 16 hrs by PAMPA assay
Format: ADME
Settings: pH 5, 16 h
testReadout: R% (%)

{"structureNotation": "OC[C@H]1O[C@H](OCc2cn(C34CC5CC(CC(C5)C3)C4)nn2)[C@@H](O)[C@@H](O)[C@@H]1O", "R% / %": 9.8}

A. Nc1ccc(-n2cc(CO[C@H]3O[C@H](CO)[C@@H](O)[C@H](O)[C@@H]3O)nn2)cc1
B. OC[C@H]1O[C@H](n2cc(-c3cccnc3)nn2)[C@@H](O)[C@@H](O)[C@@H]1O
Would you let me know which has the greater R% value, A or B ? Choose, then provide that item's label.
B
(B: 10.3%, A: 4%)
